Test system: Saccharomyces cerevisiae
Assay: protein stability index of tFT-peptide fusion (C-terminal peptide) (PSI (0-1 scale)); higher = more stable (slower turnover)
Settings: genetic background: wild type; temperature: 30 C
Readout: protein stability index
Simply state the number, no unit and no words.

Hi! What's the reported protein stability index for PAPAPPPSPLPP on Saccharomyces cerevisiae?
0.655

Now this one: DVLLVVVLGRFL
0.44

Consider next the sequence PLSFPTFVPLPI in the same way.
0.663

Now consider EKLVAERGMYAT and answer again.
0.684

One more sequence: RLTSPVLLFPLP
0.713

Field entry: RGWAGGRQGCGG
0.746

====

This listing pairs sequences with measured protein stability index.
System: Saccharomyces cerevisiae
Assay: protein stability index of tFT-peptide fusion (C-terminal peptide) (PSI (0-1 scale)); higher = more stable (slower turnover)
Details: genetic background: wild type; temperature: 37 C
Just the number.

Known results for sequences:
RLVPFMAVRVLF; 0.572
LRSLLIIYLLIF; 0.31
IGSFFLFFLLIF; 0.373
KFFRSWVLTSPA; 0.609
MIVAIQLVDHPP; 0.509
PFIPLLLAPALA; 0.42
ARTWVVLLICGH; 0.531
VCNSIPLTPPPA; 0.703
RCLHTSVFLIFP; 0.54
RSLRVLLPLYFR; 0.266

protein stability index for SRARIRLPRILS ?
0.494

Next sequence up: FSFVVRMFFRIL
0.0988

Now try KHTGTGNAPNCD .
0.712

# iterate: FTLFFVASVLDL
0.511

====

System: Saccharomyces cerevisiae
Assay: protein stability index of tFT-peptide fusion (C-terminal peptide) (PSI (0-1 scale)); higher = more stable (slower turnover)
Settings: genetic background: wild type; temperature: 30 C
Readout: protein stability index

These solved cases illustrate the format of a correct answer.
VALEWGAVRVEG; 0.569
TLSRTPVSPSAP; 0.709
ERWGGSGGGCAA; 0.67

Recorded protein stability index for LLSLMCYCWFGV , please?
0.509

For GKEGGKAGKISE then?
0.667

Same read-out for WSFSSGCWGYVG ?
0.628

Now the same for GRGLVSWEAGGV
0.716

Now consider LLRLPPPSPRYH and answer again.
0.782

Further, for IGVAARPWAGAQ ?
0.706

====

Test system: Saccharomyces cerevisiae
Experiment: protein stability index of tFT-peptide fusion (C-terminal peptide) (PSI (0-1 scale)); higher = more stable (slower turnover)
Conditions: genetic background: wild type; temperature: 30 C
Decide using protein stability index: a value greater than or equal to 0.7 is true, a smaller one is false.

YPTQSPSPAPPT; false
KALNLAAAILYG; false
KKKKKKRYRKKI; false
LLPLPPLLRLPL; false

Decide: protein stability index of SIYLLQRRQFDP >= 0.7?
false

Follow-up item: IFRFHRSRNSKY
true

====

System: Saccharomyces cerevisiae
Assay: protein stability index of tFT-peptide fusion (C-terminal peptide) (PSI (0-1 scale)); higher = more stable (slower turnover)
Conditions: genetic background: wild type; temperature: 30 C
Readout: protein stability index
Just the number.

These recorded examples may help you get a feel for the data.
LPTVSRPGALIC; 0.192
FFPSFGLFLCPV; 0.357
LFFFSFSFLFFL; 0.245
GRGFVLSVAVVA; 0.395

Reported protein stability index for TSFSSGEALGVG : what is it?
0.445

====

Quick list: protein stability index per entry.
Test system: Saccharomyces cerevisiae
Assay: protein stability index of tFT-peptide fusion (C-terminal peptide) (PSI (0-1 scale)); higher = more stable (slower turnover)
Conditions: genetic background: wild type; temperature: 30 C
Lab note: record just the number, no unit beside it.

Here are 4 sequences together with their reported answers.
PIGVFFVSGCVG; 0.606
WGGLSRCAGVWL; 0.632
TVYTPGVFVKTV; 0.562
EMGGLKACWGVG; 0.572

So what protein stability index did TNSKLTKERTEI get with Saccharomyces cerevisiae?
0.699

Same question, VIGEWWPVSGQH this time
0.718

Same lookup for PPRDPGGLFTPF , please.
0.718

Next sequence: LLPSSPRTFPLL
0.673

Please answer likewise for AIKTVINYRDMM
0.608

For ISVDNTKFLFRS then?
0.687

Here is the next sequence: TVTSTLKKHKRG
0.669

Subsequent entry: VNTISRKIPPIA
0.648

Entry RLFIIYLLNIQG please
0.407

Now consider YEKWIKKCNKEE .
0.689

Item: RPFATVLRTRAV
0.71

Now the sequence WSCTPRTPPPPR
0.793

Next sequence up: GICIVGGCGCVG
0.612

Cool, now WVGWVVVLGCVG
0.489

Follow-up entry: KKNKKKKIKMNK
0.713

Check DKRPTLYSLSLS too.
0.621

Also need HRFPPDLYQHGP , thanks.
0.645

====

System: Saccharomyces cerevisiae
Experiment: protein stability index of tFT-peptide fusion (C-terminal peptide) (PSI (0-1 scale)); higher = more stable (slower turnover)
Details: genetic background: das1 deletion; temperature: 30 C
Each entry belongs to exactly one class, chosen by where its protein stability index falls: bin 1 (below 0.3), bin 2 (0.3 to below 0.6), bin 3 (0.6 or more)

Illustrative cases are given below, each with its answer.
SILVSIFILAMQ; bin 1
WFVLYAEVMGFW; bin 1
FLCLLSLFFLDF; bin 2
ALSGLARFIVCH; bin 1
IFLGFGPLFGRL; bin 3

Hello team, could you let me know which band the following sequence falls into: SPTIFLPLFLTS
bin 2

Could you do the same for FSFPIIFFGMFL , please?
bin 2

For WLWFVGCLAAPL then?
bin 2

====

System: Saccharomyces cerevisiae
Assay: protein stability index of tFT-peptide fusion (C-terminal peptide) (PSI (0-1 scale)); higher = more stable (slower turnover)
Conditions: genetic background: wild type; temperature: 30 C
Readout: protein stability index
Response field accepts a number only; no unit should be typed.

RDVVRGVSRGGR; 0.714
GSFPPAAHFSPD; 0.702
LCCSFGLFTLFW; 0.711
KLRETQIHQGKT; 0.698

Can you look up the measured protein stability index of GGGCGGGQAGCQ for me?
0.691

What about YALWRFRSLADV ?
0.695

====

Tested on: Saccharomyces cerevisiae
Test: protein stability index of tFT-peptide fusion in deletion strain of DAS1 (PSI (0-1 scale)); higher = more stable (slower turnover)
Readout: protein stability index
Simply state the number, no unit and no words.

LVMYLSCVACIN; 0.135
KSHKKGQKQKIN; 0.6
LVVYLTCVACIN; 0.0371

Tell me the measured protein stability index of LKILRQKMIHQN , please.
0.682

====

Tested on: Saccharomyces cerevisiae
Experiment: protein stability index of tFT-peptide fusion (C-terminal peptide) (PSI (0-1 scale)); higher = more stable (slower turnover)
Conditions: genetic background: wild type; temperature: 30 C
Readout: protein stability index

Reference set (4 entries):
RTLAGLLVDSHV; 0.679
SCITFGGWLGGM; 0.709
VSSTFGQDTSKR; 0.715
VSGCVCAAADVL; 0.696

Query: protein stability index; subject: GFRLCVFGSSLF
0.696

Please give the result for GEQEKRFFLSPL too.
0.717

====

Tested on: Saccharomyces cerevisiae
Assay: protein stability index of tFT-peptide fusion (C-terminal peptide) (PSI (0-1 scale)); higher = more stable (slower turnover)
Settings: genetic background: wild type; temperature: 30 C
Label Met when protein stability index is at or above 0.7; anything below gets Not met.

Examples with answers:
LTLQIWNLVSHL; Not met
GRGAKPYIKQVY; Met
KKNTKKKQVNQE; Met
VRARTAFVPLPA; Met
QAGSTEERFCGG; Not met

I'd appreciate it if you could say whether NTRKIEAVGSER has protein stability index at least equal to 0.7.
Not met

// same read-out, input: GGLLGRLWDGGA
Met

// next record VCYLMRSLTFAY
Not met

Let us now turn to RQHPPLPSFPSP
Met

Can you handle RKSIGTAYRMPR next?
Met

Would you kindly repeat that for PLPPSPPPPPSP ?
Not met

Queued: FARELGNLNVEK
Met

Then this sequence: CGGGRSTAWERS
Not met

Request: AGRSCGRHEPPK
Not met

Same question for LGTGKSGLCVWE please.
Not met

====

Below, each of the sequences is paired with its reported protein stability index value.
Tested on: Saccharomyces cerevisiae
Test: protein stability index of tFT-peptide fusion (C-terminal peptide) (PSI (0-1 scale)); higher = more stable (slower turnover)
Settings: genetic background: wild type; temperature: 30 C
Respond using a number only.

PPPPPLLPSPSP; 0.696
PRRFPPPSPSPP; 0.713
ASSLSHLSLPAP; 0.695
LTWRVDECPPYS; 0.712
RYTKYKSYPYDI; 0.69
TVHVIVVCRELA; 0.327
RLVPFMAVRVLF; 0.487
GRTNQKKEWIIR; 0.718
SMRLELAALLVI; 0.546
GWSTKSTYHKPT; 0.732

Notebook: pull reported protein stability index for Saccharomyces cerevisiae, entry EEVVAQYCITLS
0.586

Same thing, different sequence: PHPLPPPTPSVP
0.677

The values you see were collected from the supplement of paper PMC10724198.
